Test system: human CRC HT-29 cells
protocolDetails: MTT cell viability / IC50 on HT-29 cells
Type: cell-based
measurementConditions: Homo sapiens, HT-29, 48 h, MTT assay, 1 to 50 µM, mean ± SEM of at least three experiments
resultType: IC50

>>> assayresult("COc1ccc(C(=Cc2ccccc2)c2ccccn2)cc1")
"30.3 µM"

Fill in: IC50 of COc1ccc(C(Oc2ccc(C(C)(C)C)cc2)c2ccccn2)cc1 (centres unmarked) is ___
> 50 µM

Fill in: IC50 of COc1ccc(C(=Cc2ccc(Cl)cc2)c2ccccn2)cc1 [Compound 14a] is ___
< 30 µM

Fill in: IC50 of COc1ccc(C(Oc2ccccc2)c2ccccn2)cc1 (centres unmarked) is ___
> 50 µM

Fill in: IC50 of COc1ccc(C(=Cc2ccc(C(C)(C)C)cc2)c2ccccn2)cc1 [Compound 10a] is ___
< 30 µM

Fill in: IC50 of COc1ccc(C(Oc2ccc(F)cc2)c2ccccn2)cc1 (centres unmarked) is ___
> 50 µM

Fill in: IC50 of COc1ccc(C(Oc2ccc(C)cc2)c2ccccn2)cc1 (centres unmarked) is ___
> 50 µM

Fill in: IC50 of COc1ccc(C(=Cc2ccc(F)cc2)c2ccccn2)cc1 [Compound 15a] is ___
43.4 µM

Fill in: IC50 of `COc1ccc(C=C(c2ccc(OC)cc2)c2ccccn2)cc1` is ___
43.5 µM
